Tested on: KNS-42
Procedure summary: Loewe synergy score (Combenefit); higher = more synergy; extreme values may be limits of the assay
Measurement conditions: exposure time: 72 h
Each entry below carries its reported Loewe synergy score.
Answer with the value's number alone.

1. CO[C@H]1C[C@@H]2CC[C@@H](C)[C@@](O)(O2)C(=O)C(=O)N2CCCC[C@H]2C(=O)O[C@H]([C@H](C)C[C@@H]2CC[C@@H](O)[C@H](OC)C2)CC(=O)[C@H](C)/C=C(\C)[C@@H](O)[C@@H](OC)C(=O)[C@H](C)C[C@H](C)/C=C/C=C/C=C/1C [Rapamycin] + C[C@@H](Oc1cc(-c2cnn(C3CCNCC3)c2)cnc1N)c1c(Cl)ccc(F)c1Cl [Crizotinib]
18.6
2. Nc1ccn([C@@H]2O[C@H](CO)[C@@H](O)C2(F)F)c(=O)n1 [Gemcitabine] + CO[C@H]1C[C@@H]2CC[C@@H](C)[C@@](O)(O2)C(=O)C(=O)N2CCCC[C@H]2C(=O)O[C@H]([C@H](C)C[C@@H]2CC[C@@H](O)[C@H](OC)C2)CC(=O)[C@H](C)/C=C(\C)[C@@H](O)[C@@H](OC)C(=O)[C@H](C)C[C@H](C)/C=C/C=C/C=C/1C [Rapamycin]
0.0119

Here is the next item to consider.
So for CO[C@H]1C[C@@H]2CC[C@@H](C)[C@@](O)(O2)C(=O)C(=O)N2CCCC[C@H]2C(=O)O[C@H]([C@H](C)C[C@@H]2CC[C@@H](O)[C@H](OC)C2)CC(=O)[C@H](C)/C=C(\C)[C@@H](O)[C@@H](OC)C(=O)[C@H](C)C[C@H](C)/C=C/C=C/C=C/1C [Rapamycin] + C=CCc1cccc(/C=N/NC(=O)CN2CCN(Cc3ccccc3)CC2)c1O [PAC-1] , the logged Loewe synergy score turned out to be 13.7

====

Tested on: SNB75
Procedure summary: Loewe synergy score (Combenefit); higher = more synergy; extreme values may be limits of the assay
Measurement conditions: exposure time: 72 h
Measured attribute: Loewe synergy score
Answer with the value's number alone.

Example entries begin here.
1. C=CCc1cccc(/C=N/NC(=O)CN2CCN(Cc3ccccc3)CC2)c1O [PAC-1] + Cc1cc([C@@H](C)Nc2ccccc2C(=O)O)c2nc(N3CCOCC3)cc(=O)n2c1 [AZD6482]
14.6
2. Nc1ccn([C@@H]2O[C@H](CO)[C@@H](O)C2(F)F)c(=O)n1 [Gemcitabine] + CCOc1nc(NC(=O)Cc2cc(OC)ccc2OC)cc(N)c1C#N [JNK inhibitor VIII]
2.33
3. CC(=O)O[C@@]12CO[C@@H]1C[C@H](O)[C@@]1(C)C(=O)[C@H](O)C3=C(C)[C@@H](OC(=O)[C@H](O)[C@@H](NC(=O)OC(C)(C)C)c4ccccc4)C[C@@](O)([C@@H](OC(=O)c4ccccc4)[C@H]21)C3(C)C [Docetaxel] + CCCCCCCCCCCC1=C(O)C(=O)C=C(O)C1=O [Embelin]
0.195

Here is the next item to consider.
So for CCC(=O)N1CCN(c2ccc(-n3c(=O)ccc4cnc5ccc(-c6cnc7ccccc7c6)cc5c43)cc2C(F)(F)F)CC1 [Torin1] + N#CC(c1ccnc(NCCc2cccnc2)n1)c1nc2ccccc2s1 [AS601245] , the logged Loewe synergy score turned out to be 0

====

Test system: U87
Procedure summary: Loewe synergy score (Combenefit); higher = more synergy; extreme values may be limits of the assay
Measurement conditions: exposure time: 72 h
Please use the following Loewe synergy score ranges when assigning a class: low bin = under 0.7, mid bin = from 0.7 up to 4, high bin = 4 and over

Completed entries (count: 4):
1) O=c1[nH]c2ccccc2n1C1CCN(Cc2ccc(-c3[nH]c4cc5ncnc5cc4nc3-c3ccccc3)cc2)CC1 [Akt inhibitor VIII] + N#CC(c1ccnc(NCCc2cccnc2)n1)c1nc2ccccc2s1
high bin
2) Nc1ccn([C@@H]2O[C@H](CO)[C@@H](O)C2(F)F)c(=O)n1 [Gemcitabine] + Cc1cc([C@@H](C)Nc2ccccc2C(=O)O)c2nc(N3CCOCC3)cc(=O)n2c1 [AZD6482]
low bin
3) C[C@@H](Oc1cc(-c2cnn(C3CCNCC3)c2)cnc1N)c1c(Cl)ccc(F)c1Cl [Crizotinib] + C=CCc1cccc(/C=N/NC(=O)CN2CCN(Cc3ccccc3)CC2)c1O [PAC-1]
high bin
4) CO[C@H]1C[C@@H]2CC[C@@H](C)[C@@](O)(O2)C(=O)C(=O)N2CCCC[C@H]2C(=O)O[C@H]([C@H](C)C[C@@H]2CC[C@@H](O)[C@H](OC)C2)CC(=O)[C@H](C)/C=C(\C)[C@@H](O)[C@@H](OC)C(=O)[C@H](C)C[C@H](C)/C=C/C=C/C=C/1C [Rapamycin] + C[C@@H](Oc1cc(-c2cnn(C3CCNCC3)c2)cnc1N)c1c(Cl)ccc(F)c1Cl [Crizotinib]
high bin

Which bin, given its Loewe synergy score, does C[C@@H](Oc1cc(-c2cnn(C3CCNCC3)c2)cnc1N)c1c(Cl)ccc(F)c1Cl [Crizotinib] + Cc1cc([C@@H](C)Nc2ccccc2C(=O)O)c2nc(N3CCOCC3)cc(=O)n2c1 [AZD6482] occupy?
high bin

Which bin, given its Loewe synergy score, does CO[C@H]1C[C@@H]2CC[C@@H](C)[C@@](O)(O2)C(=O)C(=O)N2CCCC[C@H]2C(=O)O[C@H]([C@H](C)C[C@@H]2CC[C@@H](O)[C@H](OC)C2)CC(=O)[C@H](C)/C=C(\C)[C@@H](O)[C@@H](OC)C(=O)[C@H](C)C[C@H](C)/C=C/C=C/C=C/1C [Rapamycin] + CCOc1nc(NC(=O)Cc2cc(OC)ccc2OC)cc(N)c1C#N [JNK inhibitor VIII] occupy?
mid bin

Which bin, given its Loewe synergy score, does CO[C@H]1C[C@@H]2CC[C@@H](C)[C@@](O)(O2)C(=O)C(=O)N2CCCC[C@H]2C(=O)O[C@H]([C@H](C)C[C@@H]2CC[C@@H](O)[C@H](OC)C2)CC(=O)[C@H](C)/C=C(\C)[C@@H](O)[C@@H](OC)C(=O)[C@H](C)C[C@H](C)/C=C/C=C/C=C/1C [Rapamycin] + C=CCc1cccc(/C=N/NC(=O)CN2CCN(Cc3ccccc3)CC2)c1O [PAC-1] occupy?
low bin
